Reference source for all entries: patent US20220356239A1

Form field: IC50 of inhibition of IL-5-induced proliferation of TF1 cells (one value per entry).
Molecular target: T1, Human IL-5 amino acid sequence with his tag (rhIL-5-his) (human, UniProt P05113 20-134)
T1 sequence: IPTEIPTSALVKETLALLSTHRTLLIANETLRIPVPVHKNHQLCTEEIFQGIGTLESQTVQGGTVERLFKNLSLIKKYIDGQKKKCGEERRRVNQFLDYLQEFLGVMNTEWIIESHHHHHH
Test: cell-based or functional assay
Express the result in nM but write the number alone.

Illustrative cases are given below, each with its answer.
# binder, observed-value
measured = [
    ("h1779-014 (antibody, human IgG1, kappa, V domains shown, h1779_VH.1D + h1779_VL.1A; IgG1 (YTE) / kappa constant regions) VH: EVQLVQSGAEVKKPGASVKVSCKASGYTFTDYIIHWVKQAPGQGLEWIGYFNPNSGGSNYNENFKRKATMTADKSISTAYLEFSRLRSEDTAVYYCARRIAWDHWYFDFWGQGTMVTVSS VL: DIQMTQSPSSLSASVGDRVTITCLASEGISNDVAWYQQKPGKSPKLLIYAASRLQDGVPSRFSGSGSGTDFTFTISSLQPEDIATYYCQQGYKTPLTFGQGTKLEIKR", 0.2),
    ("h1705-007 (antibody, human IgG1, kappa, V domains shown) VH: EVQLVESGGGLVQPGGSLRLSCAASGFTFSHYYMAWVRQAPGKGLEWVSSISYEGDITYYGDSVKGRFTISRDNSKNTLYLQMNSLRAEDTAVYYCASQTLRESFDYWGQGTLVTVSS VL: DIQMTQSPSSVSASVGDRVTITCRASQDIANYLSWYQQKPGKSPKLLIYGTSNLEVGVPSRFSGSRSGTDFTLTISSLQPEDFATYYCLQDKEFPRTFGGGTKVEIKR", 0.25),
]

// next item, IC50 of inhibition of IL-5-induced proliferation of TF1 cells requested
Problem: Consider the binder shown here: h1705-010 (antibody, human IgG1, kappa, V domains shown) VH: EVQLVESGGGLVQPGGSLRLSCAASGFTFSHYYMAWVRQAPGKGLEWVSSISYEGDITYYGDSVKGRFTISRDNSKNTLYLQMNSLRAEDTAVYYCASQTLRESFDYWGQGTLVTVSS VL: DIQMTQSPSSVSASVGDRVTITCRASQDIANYLSWYQQKPGKSPKLVIYGTSNLEVGVPSRFSGSRSGSDYTLTISSLQPEDFATYFCLQDKEFPRTFGGGTKVEIKR What is its recorded IC50 of inhibition of IL-5-induced proliferation of TF1 cells?
Solution: 0.3
